- Assay info: Drug interaction trials: effect of rilpivirine on pharmacokinetics of coadministered drugs
- Stated conditions: No Effect = 1.00
Classify by measured Cmin of coadministered drug, geometric mean ratio with/without EDURANT: MET if it is equal to or exceeds 1, NOT MET if it is smaller.

INSERT INTO results (compound, category) VALUES
  ('CC(=O)N1CCN(c2ccc(OCC3COC(Cn4ccnc4)(c4ccc(Cl)cc4Cl)O3)cc2)CC1 (centres unmarked)', 'NOT MET'),
  ('COc1ccc2c(O[C@@H]3C[C@H]4C(=O)N[C@]5(C(=O)NS(=O)(=O)C6CC6)C[C@H]5/C=C\CCCCN(C)C(=O)[C@@H]4C3)cc(-c3nc(C(C)C)cs3)nc2c1C', 'NOT MET'),
  ('CC(C)c1c(C(=O)Nc2ccccc2O)c(-c2ccccc2)c(-c2ccc(F)cc2)n1CCC(O)CC(O)CC(=O)O (centres unmarked) [2-hydroxy-atorvastatin]', 'MET'),
  ('C#C[C@]1(O)CC[C@H]2[C@@H]3CCc4cc(O)ccc4[C@H]3CC[C@@]21C', 'MET');

====

- Stated conditions: human, in vivo
Property name: Cmax of coadministered drug, geometric mean ratio with/without EDURANT

INSERT INTO results (compound, observed_result) VALUES
  ('COc1ccc2[nH]c([S+]([O-])Cc3ncc(C)c(OC)c3C)nc2c1 (stereo not drawn)', 0.86),
  ('C#C[C@]1(O)CC[C@H]2[C@@H]3CCC4=CC(=O)CC[C@@H]4[C@H]3CC[C@@]21C', 0.94),
  ('C#C[C@]1(O)CC[C@H]2[C@@H]3CCc4cc(O)ccc4[C@H]3CC[C@@]21C', 1.17),
  ('CN(C)C(=N)N=C(N)N', 1.02),
  ('CC(=O)Nc1ccc(O)cc1', 0.97),
  ('CCCc1nn(C)c2c(=O)[nH]c(-c3cc(S(=O)(=O)N4CCN(C)CC4)ccc3OCC)nc12', 0.93);

====

- Assay info: Established and other potentially significant drug interactions with JULUCA (effect on concentration)
- Assay type: in vivo, human
- Stated conditions: concomitant drug with JULUCA; based on drug interaction trials or predicted interactions
Property name: Effect on Concentration of Rilpivirine

INSERT INTO assay_data (molecule, property_name, observed_result) VALUES
  ('CC[C@H]1OC(=O)[C@H](C)[C@@H](O[C@H]2C[C@@](C)(OC)[C@@H](O)[C@H](C)O2)[C@H](C)[C@@H](O[C@@H]2O[C@H](C)C[C@H](N(C)C)[C@H]2O)[C@](C)(O)C[C@@H](C)C(=O)[C@H](C)[C@@H](O)[C@]1(C)O [Erythromycin]', 'Effect on Concentration of Rilpivirine', '↑Rilpivirine'),
  ('CC[C@H]1OC(=O)[C@H](C)[C@@H](O[C@H]2C[C@@](C)(OC)[C@@H](O)[C@H](C)O2)[C@H](C)[C@@H](O[C@@H]2O[C@H](C)C[C@H](N(C)C)[C@H]2O)[C@](C)(OC)C[C@@H](C)C(=O)[C@H](C)[C@@H](O)[C@]1(C)O [Clarithromycin]', 'Effect on Concentration of Rilpivirine', '↑Rilpivirine'),
  ('NC(=O)N1c2ccccc2C=Cc2ccccc21 [Carbamazepine]', 'Effect on Concentration of Rilpivirine', '↓Rilpivirine'),
  ('CNC(=C[N+](=O)[O-])NCCSCc1csc(CN(C)C)n1 [Nizatidine]', 'Effect on Concentration of Rilpivirine', '↓Rilpivirine'),
  ('COc1ccc2nc([S@@+]([O-])Cc3ncc(C)c(OC)c3C)[nH]c2c1 [Esomeprazole]', 'Effect on Concentration of Rilpivirine', '↓Rilpivirine'),
  ('CO[C@H]1/C=C/O[C@@]2(C)Oc3c(C)c(O)c4c(O)c(c(/C=N/N5CCN(C6CCCC6)CC5)c(O)c4c3C2=O)NC(=O)/C(C)=C\C=C\[C@H](C)[C@H](O)[C@@H](C)[C@@H](O)[C@@H](C)[C@H](OC(C)=O)[C@@H]1C [Rifapentine]', 'Effect on Concentration of Rilpivirine', '↓Rilpivirine'),
  ('CN/C(=N/CCSCc1nc[nH]c1C)NC#N [Cimetidine]', 'Effect on Concentration of Rilpivirine', '↓Rilpivirine');

# credit: patent US12011506B2
